experiment: Solubility determination of bulk substance in test solutions of various pH (37° C., 1 hour); type: physicochemical; conditions: test solution; pH≤4; 37° C.
Where a name gives a salt, the structure may show the parent alone.
parameter: solubility at 1 h

// Input: CNc1cc(OC)c(C(=O)NC2CCN(Cc3ccccc3)C2C)cc1Cl (stereo not shown) [emonapride hydrochloride] . Output its solubility at 1 h only.
≥ 5000 µg/mL

---

experiment: Solubility determination of bulk substance in test solutions of various pH (37° C., 1 hour); assay type: physicochemical; conditions: test solution; pH≥6.8; 37° C.
Where a name gives a salt, the structure may show the parent alone.
parameter: solubility at 1 h

State, in one line, measured solubility at 1 h of CNc1cc(OC)c(C(=O)NC2CCN(Cc3ccccc3)C2C)cc1Cl (stereo not shown) [emonapride hydrochloride]
≤ 10 µg/mL
